System: UACC-257
Assay: NCI tumour cell line growth inhibition, 48 h
Active and inactive are the calls of the source. No stated cut-off is given here; in the data, active = GI50 up to about 1.1 µM and inactive = higher. Where a SMILES comes first, the peptide text is derived from it. The star is where a group is joined. Cbz = O=C(OCc1ccccc1)*; OBn = c1ccc(CO*)cc1
Returns: one label drawn from t for active, f for inactive

Past entries and their recorded results:
{"columns": ["compound", "classification"],
 "data": [
  ["COc1cc2c(cc1OC)CCc1cc(OC)c(OC)cc1CC2", "f"],
  ["COC(=O)[C@@H]1C(=O)O[C@@H](c2cc(OC)c(OC)cc2OC)[C@@H]1C(=O)OC.COC(=O)[C@H]1C(=O)O[C@@H](c2cc(OC)c(OC)cc2OC)[C@@H]1C(=O)OC", "f"],
  ["O=[N+]([O-])c1cccc(/C=N/C23CC4CC(CC(C4)C2)C3)c1", "f"],
  ["CCN(CC)c1cccc2c1C1(O)CCC3(CC21)OCCCCO3 (stereo unspecified)", "f"],
  ["CCCc1n[nH]c(CCC(=O)N(Cc2ccccc2)Cc2ccccc2)c1CC", "f"],
  ["CCc1cccc(C)c1NC(=O)CCc1n[nH]c(=S)o1", "f"],
  ["CCOc1cc(NC(C)=O)ccc1C(=O)NN1C(=O)CSC1c1ccc(O)c(OC)c1 (stereo unspecified)", "f"],
  ["Cc1cc2c([N+](=O)[O-])cc3c(c2o1)C(=O)C=CC3=O", "f"],
  ["CC1CC[C@@]2(OC1)OC1C[C@H]3[C@@H]4CC[C@H]5CC(OC6OC(CO)C(O)C(OC7OC(CO)C(OC8OC(CO)C(O)C(OC9OC(CO)C(O)C(O)C9O)C8OC8OC(CO)C(O)C(O)C8O)C(O)C7O)C6O)[C@H](O)CC5(C)[C@H]4CCC3(C)C1[C@@H]2C (stereo partly specified)", "f"],
  ["CCC1C(C(=O)Nc2ccccc2C)=C(C)NC(C)=C1c1ccccc1C (stereo unspecified)", "f"]
]}

Req: // outcome(item) with item = COC1/C=C/C(C)C(C(C)C(OC)C(C)CCC(=O)C(C)C(CC(=O)O)OC)OC(=O)/C=C/C=C(\C)CC(OC)CC2=CC(=O)O[C@H](C2)C(C)C(OC)CC(OC)/C=C/C(C)C(OC)C1 (stereo partly specified)
Resp: t

Req: # iterate: "CO[C@H]1SC[C@H](OC(C)=O)[C@H](OC(C)=O)[C@H]1OC(C)=O"
Resp: f

Req: Entry "Brc1ccccc1/C=N\C12CC3CC(CC(C3)C1)C2" please
Resp: f

Req: Now the compound "CC(C)(C)c1ccc2c(c1)OP1(Oc3c(Cl)cc(Cl)c4cccnc34)(O2)Oc2ccc(C(C)(C)C)cc2O1"
Resp: f

Req: What do we get for COC(=O)C(Cc1ccc(O)cc1)NC(=O)C(CC(=O)OCc1ccccc1)NC(=O)OCc1ccccc1 (stereo unspecified) (Cbz-Asp(OBn)-Tyr-OMe; configuration not given here) ?
Resp: f

Req: Now try "COc1ccc2nc(-n3c(/C=C/c4ccccc4O)nc4ccccc4c3=O)sc2c1" .
Resp: f

###

System: K562
Assay: NCI tumour cell line growth inhibition, 48 h
Active and inactive are the calls of the source. Rule as the data show it: active = GI50 up to about 1.1 µM and inactive = higher.
Below, each of the molecules is paired with its reported GI50 value.

Some solved cases for reference:
{"columns": ["molecule", "property-name", "obs-value"],
 "data": [
  ["O=c1c(C(c2ccc(OCc3ccccc3)cc2)c2c(O)oc3ccccc3c2=O)c(O)oc2ccccc12", "GI50", "10 µM (inactive)"],
  ["O=[N+]([O-])c1ccc2oc(=N/c3ccccc3)/c(=N\\c3ccccc3)[nH]c2c1", "GI50", "> 100 µM (inactive)"],
  ["O=C(CSc1nnc(Cc2ccccc2)o1)Nc1ccc(Cl)cc1Cl", "GI50", "> 100 µM (inactive)"],
  ["COc1cccc(CCNC(=O)Cc2ccccc2CCO)c1", "GI50", "> 100 µM (inactive)"],
  ["CCCCNN", "GI50", "> 100 µM (inactive)"],
  ["CCOC(=O)c1[nH]c2cc(OC)c(OC)cc2c1CN(C)C", "GI50", "> 100 µM (inactive)"],
  ["CN(C)c1ccc(/C=c2/c3ccccc3n3c2cc(NC(=O)NCCC[N+](C)(C)C)[n+]3C)cc1", "GI50", "40.6 µM (inactive)"],
  ["CNC(=O)C1(C#N)C(c2ccccc2)C(C#N)(C(=O)NC)C1c1ccccc1 (stereo not given)", "GI50", "24.4 µM (inactive)"]
]}

Req: Quick one: GI50 of "COc1ccc(CNC(=O)[C@H](Cc2ccc(O)cn2)NC(C)=O)cc1" ?
Resp: > 100 µM (inactive)

Req: Try this molecule next: "Clc1ccccc1-c1nn2c(CCCCCCCCc3nnc4sc(-c5ccccc5Cl)nn34)nnc2s1"
Resp: > 100 µM (inactive)

###

Documented GI50 across a set of compounds
Tested on: HCC 2998
Experiment: NCI tumour cell line growth inhibition, 48 h
Calls of active or inactive are those of the source. Cut-off read from the data, not from the text of the source: active = GI50 up to about 1.1 µM and inactive = higher.

Worked examples follow.
{"columns": ["compound", "property-name", "obs-value"],
 "data": [
  ["NC(=O)c1csc(C2C=CC(CO)O2)n1 (configuration not stated)", "GI50", "> 100 µM (inactive)"],
  ["CCOC(=O)/C(Cl)=C(\\C)Nc1nc2c(ccc3ccccc32)s1", "GI50", "16.4 µM (inactive)"],
  ["Cc1cccc(NC(=O)CSc2nnc(Cc3ccccc3)o2)c1", "GI50", "> 100 µM (inactive)"],
  ["COc1cccc(CCNC(=O)Cc2ccccc2CCO)c1", "GI50", "> 100 µM (inactive)"]
]}

Req: Which GI50 value is on record for CCCNCCCCC(NC(C)=O)C(=O)NCc1ccccc1 (configuration not stated) ?
Resp: > 100 µM (inactive)

Req: Same again, this time with "C/C(CC(=O)Nc1ccccc1)=N\NC(N)=S"
Resp: > 100 µM (inactive)

Req: Same question, COC(=O)C(Cc1ccc2c(c1)OCO2)(NC(=O)c1ccccc1)P(=O)(OC)OC (configuration not stated) this time
Resp: > 100 µM (inactive)

Req: Try the compound "O=C(/C=C\c1ccccc1O)c1ccc(O)cc1O"
Resp: > 100 µM (inactive)

###

Test system: HCC 2998
Experiment: NCI tumour cell line growth inhibition, 48 h
Calls of active or inactive are those of the source. Rule as the data show it: active = GI50 up to about 1.1 µM and inactive = higher.
Catalogue of compounds with associated GI50

{"columns": ["compound", "obs-value"],
 "data": [
  ["Cc1nc2ccccc2[s+]c1-c1cnc(NC#N)nc1C(=O)Nc1cccc(Cl)c1", "> 100 µM (inactive)"],
  ["C/C(=N/NC(=S)N1CC2CCC(CC2)C1)c1cnccn1", "0.218 µM (active)"],
  ["Clc1nc(-[n+]2ccc(-c3ccncc3)cc2)nc(Nc2ccccc2)c1Cl", "> 100 µM (inactive)"],
  ["CC(=O)Oc1ccc2c3c1[C@H]1O[C@H]1c1cccc(c1-3)[C@@H]1O[C@H]21", "7.78 µM (inactive)"]
]}

Req: May I ask what GI50 has been recorded for "O=C1/C(=C/c2cccc(Br)c2)CSC/C1=C\c1cccc(Br)c1" ?
Resp: 1.78 µM (inactive)

Req: Try the compound "Clc1ccccc1-c1nn2c(CCCCCCCCc3nnc4sc(-c5ccccc5Cl)nn34)nnc2s1"
Resp: > 100 µM (inactive)

Req: Now consider "Cc1cc2c(c(=O)n1C)SCC2" and answer again.
Resp: > 100 µM (inactive)

Req: Now give it for NC(=S)C1=C(N)Oc2c(c(=O)oc3ccccc23)C1c1ccc(Br)cc1 (configuration not stated) too.
Resp: > 100 µM (inactive)

###

System: UACC-62
Test: NCI tumour cell line growth inhibition, 48 h
Calls of active or inactive are those of the source. No stated cut-off is given here; in the data, active = GI50 up to about 1.1 µM and inactive = higher. *1 amine or outer side, *2 acyl side, *3 side chain or, on linkers, in order; H or OH if unused. Where a SMILES comes first, the peptide text is derived from it. [ ]: non-standard residue; d: D form. The star is where a group is joined. ξ: configuration not given here. X53 = CC(C)C[C@H](N[*:1])C1=N[C@H](C(=O)[*:2])CS1; Ile(3ξ) = CCC(C)[C@H](N)C(=O)O; Allyl(1,1-Me2) = C=CC(C)(C)*
Tick one outcome: 1 (yes) = active, 0 (no) = inactive

{"columns": ["compound", "classification"],
 "data": [
  ["CCNC(=O)O/N=C1\\CCC2[C@@H]3CC=C4C[C@@H](OC5CCCCO5)CC[C@]4(C)C3CC[C@]12C (some centres undefined)", "1 (yes)"],
  ["CCOC(=O)c1c(/C=N\\Nc2ccccc2)nc2ccccc2c1-c1ccccc1", "0 (no)"],
  ["C=CC(C)(C)OC[C@@H]1NC(=O)CNC(=O)[C@@H]2CCCN2C(=O)[C@H](C(C)CC)NC(=O)[C@@H]2CSC(=N2)[C@H](CC(C)C)NC1=O (some centres undefined) (cyclo(GS(Allyl(1,1-Me2))[X53][Ile(3ξ)]P))", "0 (no)"],
  ["N#CC1(C2CC(=O)N(c3ccccc3)C2=O)CCCCC1=O (centres undefined)", "0 (no)"],
  ["CCOC(=O)C(C(=O)Cc1ccccc1)c1ccccc1 (centres undefined)", "0 (no)"]
]}

Req: Kindly provide the recorded test outcome for the following compound: "COc1cc(C(=O)NO)ccc1O"
Resp: 0 (no)

Req: Would you kindly repeat that for Fc1ccc(C2SCc3nc4ccccc4n32)cc1Cl (centres undefined) ?
Resp: 0 (no)

Req: What about this compound? COC(=O)C(Cc1ccccc1)NC(=O)Cn1ccnc1[N+](=O)[O-] (centres undefined)
Resp: 0 (no)

Req: Quick one: "O=C(O)c1c2c(cc3c(=O)c4ccccc4[nH]c13)CCCC2"
Resp: 0 (no)
